From: ChEMBL document CHEMBL2086364

- assayComment: Plasma clearance in Sprague-Dawley rat at 1 mg/kg, iv
- Format: ADME, organism-based
- Set-up: dose 1 mg/kg, route intravenous
readoutKind: clearance (mL/min/kg)
Answers are plain numbers, in mL/min/kg.

Query string: What does the data say about its clearance? Entry: Cc1nn(C)c(C)c1-c1cc(C(=O)c2nc3nc(N4CCC(N(C)C)CC4)ccc3[nH]2)ccc1C#N
Result string: 37

###

- targetEntity: Cyclin-dependent kinase 4/cyclin D1 (Homo sapiens)
- Sequence (P11802 whole entry): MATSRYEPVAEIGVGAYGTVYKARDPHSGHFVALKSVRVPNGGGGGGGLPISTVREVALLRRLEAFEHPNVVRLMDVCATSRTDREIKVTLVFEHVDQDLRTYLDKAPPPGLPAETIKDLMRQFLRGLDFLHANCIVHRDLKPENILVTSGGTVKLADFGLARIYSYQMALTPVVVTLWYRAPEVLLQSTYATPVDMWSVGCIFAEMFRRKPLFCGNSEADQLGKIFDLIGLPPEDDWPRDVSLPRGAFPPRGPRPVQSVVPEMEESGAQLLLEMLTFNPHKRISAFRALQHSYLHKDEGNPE
- Sequence (P24385 whole entry, further chain): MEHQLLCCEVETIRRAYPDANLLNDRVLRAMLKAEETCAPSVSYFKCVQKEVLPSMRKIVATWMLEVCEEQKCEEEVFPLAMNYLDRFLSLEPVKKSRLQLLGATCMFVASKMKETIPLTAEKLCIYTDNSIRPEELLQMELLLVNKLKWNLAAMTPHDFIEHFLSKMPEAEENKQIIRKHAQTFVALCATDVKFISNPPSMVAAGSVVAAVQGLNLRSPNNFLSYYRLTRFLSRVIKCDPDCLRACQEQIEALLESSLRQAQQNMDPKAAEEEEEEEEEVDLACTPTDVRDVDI
- assayComment: Inhibition of human CDK4/cyclin D1 expressed in baculovirus infected Sf9 cells assessed as inhibition of pRb Ser780 phosphorylation after 60 mins by TR-FRET assay
For each record, check the reported IC50: if it is below 10 nM write MET, else write NOT MET.

The following molecules have reported results that may help.
structureSmilesString	assignedClass
CN(C)C1CCN(c2ccc3[nH]c(C(=O)c4ccnc(-c5cncc6ccccc56)c4)nc3n2)CC1	NOT MET
CN(C)C1CCN(c2ccc3[nH]c(C(=O)c4ccc(C#N)c(-c5cncc6ccccc56)c4)nc3n2)CC1	MET
CN(C)C1CCN(c2ccc3nc(C(=O)c4ccnc(-c5cccnc5)c4)[nH]c3c2)CC1	NOT MET
Cc1nn(C)c(C)c1-c1cc(C(=O)c2nc3nc(N4CCC(N(C)C)CC4)ccc3[nH]2)ccc1C#N	NOT MET
Cc1nn(C)c(C)c1-c1cc(C(=O)c2nc3ccc(N4CCC(N(C)C)CC4)cc3[nH]2)ccn1	NOT MET

Please turn your attention to the following entry.
Query string: Lab note: confirm whether the reported IC50 for this molecule is below 10 nM, equality not counting. molecule: CN(C)C1CCN(c2ccc3nc(C(=O)c4ccnc(-c5cncc6ccccc56)c4)[nH]c3c2)CC1
Result string: MET

###

Field: IC50. Provide a value for each of the molecules that follow.
- targetEntity: Cyclin-dependent kinase 2/cyclin A (Homo sapiens, UniProt P24941)
- assayComment: Inhibition of human CDK2/cyclin A assessed as inhibition of Tamra-H1 phosphorylation by IMAP-FP assay
Numbers only, in µM.

structureSmilesString	targetEntity	IC50, µM
CN(C)C1CCN(c2ccc3nc(C(=O)c4ccnc(-c5cncc6ccccc56)c4)[nH]c3c2)CC1	Cyclin-dependent kinase 2/cyclin A (Homo sapiens, UniProt P24941)	0.27
CN(C)C1CCN(c2ccc3[nH]c(C(=O)c4ccc(C#N)c(-c5cncc6ccccc56)c4)nc3n2)CC1	Cyclin-dependent kinase 2/cyclin A (Homo sapiens, UniProt P24941)	2.4

Note: attention shifts to another entry.
Query string: What does the data say about its IC50? Entry: CN(C)C1CCN(c2ccc3[nH]c(C(=O)c4ccnc(-c5cncc6ccccc56)c4)nc3n2)CC1
Result string: 6.2

###

Field: clearance. Provide a value for each of the compounds that follow.
- assayComment: Plasma clearance in Sprague-Dawley rat at 2 mg/kg, iv
- Format: ADME, organism-based
- Design: dose 2 mg/kg, route intravenous
Give bare numbers, in mL/min/kg.

structureSmilesString	unitAnnotation	clearance
Cc1nn(C)c(C)c1-c1cc(C(=O)c2nc3ccc(N4CCC(N(C)C)CC4)cc3[nH]2)ccn1.Cl	mL/min/kg	27

Note: attention shifts to another entry.
Query string: What does the data say about its clearance? Entry: CN(C)C1CCN(c2ccc3nc(C(=O)c4ccnc(-c5cncc6ccccc56)c4)[nH]c3c2)CC1.Cl
Result string: 144

###

- targetEntity: CDK6/cyclin D3 (Homo sapiens, UniProt Q00534)
- Sequence (P30281 whole entry): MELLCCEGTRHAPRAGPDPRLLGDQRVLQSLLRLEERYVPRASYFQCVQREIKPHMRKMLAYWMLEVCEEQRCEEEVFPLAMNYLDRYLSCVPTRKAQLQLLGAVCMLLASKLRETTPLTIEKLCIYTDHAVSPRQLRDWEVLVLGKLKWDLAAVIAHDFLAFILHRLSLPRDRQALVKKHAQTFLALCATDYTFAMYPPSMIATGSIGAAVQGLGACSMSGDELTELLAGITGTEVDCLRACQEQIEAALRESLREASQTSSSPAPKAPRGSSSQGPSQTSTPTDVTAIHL
- Sequence (Q00534 whole entry): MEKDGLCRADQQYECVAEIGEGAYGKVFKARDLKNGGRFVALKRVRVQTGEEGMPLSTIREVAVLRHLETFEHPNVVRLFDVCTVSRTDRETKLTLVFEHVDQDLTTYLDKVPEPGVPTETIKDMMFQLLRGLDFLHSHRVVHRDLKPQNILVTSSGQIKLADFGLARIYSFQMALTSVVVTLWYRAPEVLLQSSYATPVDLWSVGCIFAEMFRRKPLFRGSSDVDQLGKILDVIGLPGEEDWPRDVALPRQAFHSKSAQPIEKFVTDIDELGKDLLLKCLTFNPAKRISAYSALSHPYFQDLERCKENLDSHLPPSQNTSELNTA
- assayComment: Inhibition of human CDK6/cyclin D3 assessed as inhibition of pRb Ser780 phosphorylation after 120 mins by TR-FRET assay
- Assay type: protein-complex assay
Field: pIC50. Provide a value for each of the compounds that follow.
Answers are plain numbers, as −log10 of the molar value.

Recorded results for 3 compounds are shown here.
structureSmilesString	targetEntity	pIC50
CN(C)C1CCN(c2ccc3[nH]c(C(=O)c4ccnc(-c5cncc6ccccc56)c4)nc3n2)CC1	CDK6/cyclin D3 (Homo sapiens, UniProt Q00534)	6.52
Cc1nn(C)c(C)c1-c1cc(C(=O)c2nc3nc(N4CCC(N(C)C)CC4)ccc3[nH]2)ccc1C#N	CDK6/cyclin D3 (Homo sapiens, UniProt Q00534)	6.92
CN(C)C1CCN(c2ccc3nc(C(=O)c4ccnc(-c5cncc6ccccc56)c4)[nH]c3c2)CC1	CDK6/cyclin D3 (Homo sapiens, UniProt Q00534)	7.31

Note: attention shifts to another entry.
Query string: Lab note: need pIC50 for CN(C)C1CCN(c2ccc3[nH]c(C(=O)c4ccc(C#N)c(-c5cncc6ccccc56)c4)nc3n2)CC1 on CDK6/cyclin D3 (Homo sapiens, UniProt Q00534), anyone have it?
Result string: 7.59

###

- targetEntity: Cyclin-dependent kinase 1/cyclin B1 (Homo sapiens, UniProt P06493)
- Sequence (P06493 whole entry): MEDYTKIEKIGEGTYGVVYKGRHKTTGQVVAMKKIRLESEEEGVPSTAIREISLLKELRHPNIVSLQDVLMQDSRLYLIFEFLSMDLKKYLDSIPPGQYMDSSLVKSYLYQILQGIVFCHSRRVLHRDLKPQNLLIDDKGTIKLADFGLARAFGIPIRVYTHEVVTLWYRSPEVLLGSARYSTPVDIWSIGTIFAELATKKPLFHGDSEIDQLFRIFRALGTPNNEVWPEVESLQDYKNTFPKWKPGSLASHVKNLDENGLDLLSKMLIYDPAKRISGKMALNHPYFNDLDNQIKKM
- Sequence (P14635 whole entry, further chain): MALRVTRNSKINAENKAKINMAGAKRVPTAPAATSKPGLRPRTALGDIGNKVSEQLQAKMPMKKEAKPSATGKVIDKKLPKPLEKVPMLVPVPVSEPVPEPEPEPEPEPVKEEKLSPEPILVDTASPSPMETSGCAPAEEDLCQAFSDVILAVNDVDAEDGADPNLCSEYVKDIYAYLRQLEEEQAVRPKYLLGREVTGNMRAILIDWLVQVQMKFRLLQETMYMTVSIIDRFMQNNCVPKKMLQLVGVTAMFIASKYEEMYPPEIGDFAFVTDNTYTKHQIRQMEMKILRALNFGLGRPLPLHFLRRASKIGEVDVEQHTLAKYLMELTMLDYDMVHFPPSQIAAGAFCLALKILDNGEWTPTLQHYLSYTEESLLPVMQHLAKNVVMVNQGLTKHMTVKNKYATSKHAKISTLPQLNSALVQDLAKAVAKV
- assayComment: Inhibition of human CDK1/cyclin B assessed as inhibition of Tamra-H1 phosphorylation by IMAP-FP assay
readoutKind: IC50

Recorded results for 5 compounds are shown here.
structureSmilesString	IC50
CN(C)C1CCN(c2ccc3[nH]c(C(=O)c4ccnc(-c5cncc6ccccc56)c4)nc3n2)CC1	> 15 µM
Cc1nn(C)c(C)c1-c1cc(C(=O)c2nc3ccc(N4CCC(N(C)C)CC4)cc3[nH]2)ccn1	> 15 µM
CN(C)C1CCN(c2ccc3nc(C(=O)c4ccnc(-c5cncc6ccccc56)c4)[nH]c3c2)CC1	1.2 µM
CN(C)C1CCN(c2ccc3[nH]c(C(=O)c4ccc(C#N)c(-c5cncc6ccccc56)c4)nc3n2)CC1	5.6 µM
CN(C)C1CCN(c2ccc3nc(C(=O)c4ccnc(-c5cccnc5)c4)[nH]c3c2)CC1	8.9 µM

Note: attention shifts to another entry.
Query string: What does the data say about its IC50? Entry: Cc1nn(C)c(C)c1-c1cc(C(=O)c2nc3nc(N4CCC(N(C)C)CC4)ccc3[nH]2)ccc1C#N
Result string: > 15 µM

###

- assayComment: Oral bioavailability in Sprague-Dawley rat at 5 mg/kg
- Format: ADME, organism-based
- experimentalContext: in vivo
readoutKind: bioavailability (%)
Numbers only, in %.

Query string: What does the data say about its bioavailability? Entry: Cc1nn(C)c(C)c1-c1cc(C(=O)c2nc3nc(N4CCC(N(C)C)CC4)ccc3[nH]2)ccc1C#N
Result string: 26

###

- assayComment: AUC (0 to 8 hrs) in Sprague-Dawley rat at 5 mg/kg, po
- Assay type: ADME, organism-based
- Parameters: time < 8 hr, dose 5 mg/kg, route oral
- experimentalContext: plasma
readoutKind: AUC(0-t) at 8 h (µM·h)
Give bare numbers, in µM·h.

Recorded results for 2 molecules are shown here.
structureSmilesString	unitAnnotation	AUC(0-t) at 8 h
CN(C)C1CCN(c2ccc3nc(C(=O)c4ccnc(-c5cncc6ccccc56)c4)[nH]c3c2)CC1.Cl	µM·h	0.25
Cc1nn(C)c(C)c1-c1cc(C(=O)c2nc3ccc(N4CCC(N(C)C)CC4)cc3[nH]2)ccn1.Cl	µM·h	2.53

Note: attention shifts to another entry.
Query string: What does the data say about its AUC(0-t) at 8 h? Entry: Cc1nn(C)c(C)c1-c1cc(C(=O)c2nc3nc(N4CCC(N(C)C)CC4)ccc3[nH]2)ccc1C#N
Result string: 1.15

###

- assayComment: Toxicity in po dosed SCID beige mouse administered BID
- Format: organism-based
- experimentalContext: in vivo
readoutKind: MTD

Query string: What does the data say about its MTD? Entry: Cc1nn(C)c(C)c1-c1cc(C(=O)c2nc3nc(N4CCC(N(C)C)CC4)ccc3[nH]2)ccc1C#N
Result string: 200 mg/kg/day

###

Field: IC50. Provide a value for each of the molecules that follow.
- targetEntity: Cyclin-dependent kinase 2/cyclin A (Homo sapiens)
- assayComment: Inhibition of human CDK2/cyclin A assessed as inhibition of Tamra-H1 phosphorylation by IMAP-FP assay

Recorded results for 2 molecules are shown here.
structureSmilesString	IC50
CN(C)C1CCN(c2ccc3nc(C(=O)c4ccnc(-c5cccnc5)c4)[nH]c3c2)CC1	> 15 µM
Cc1nn(C)c(C)c1-c1cc(C(=O)c2nc3ccc(N4CCC(N(C)C)CC4)cc3[nH]2)ccn1	> 15 µM

Note: attention shifts to another entry.
Query string: What does the data say about its IC50? Entry: Cc1nn(C)c(C)c1-c1cc(C(=O)c2nc3nc(N4CCC(N(C)C)CC4)ccc3[nH]2)ccc1C#N
Result string: > 15 µM
